assay: Placebo-controlled ascending single-dose study in healthy subjects (CAT001); assay type: in vivo, human; settings: human, in vivo, oral, 400 mg, single dose 400 mg, fasted; geometric mean
test readout: half-life (h)
Your answer should be a plain number; it is taken to be in h.

[in] Fill in the blank: the reported half-life of O=C(O)CC1CC(c2ccccc2)=NO1 (stereo not shown) [VGX-1027] is ____.
[out] 6.7

* * *

experiment: Placebo-controlled ascending multiple-dose study in healthy subjects; type: in vivo, human; settings: human, in vivo, oral, 200 mg, Multiple Dose (Day 1) 200 mg
test readout: Tmax (h)
Your answer should be a plain number; it is taken to be in h.

[in] Fill in the blank: the reported Tmax of O=C(O)CC1CC(c2ccccc2)=NO1 (stereo not shown) is ____.
[out] 1.3

* * *

test: Placebo-controlled ascending single-dose study in healthy subjects (CAT001); assay type: in vivo, human; conditions: human, in vivo, oral, 1 mg, single dose 1 mg, fasted; geometric mean
test readout: half-life (h)
Your answer should be a plain number; it is taken to be in h.

[in] Fill in the blank: the reported half-life of O=C(O)CC1CC(c2ccccc2)=NO1 (stereo not shown) [VGX-1027] is ____.
[out] 7.2

* * *

experiment: Placebo-controlled ascending single-dose study in healthy subjects (CAT001); type: in vivo, human; details: human, in vivo, oral, 100 mg, Single Dose (CAT001) 100 mg; Geo Mean
test readout: Cmax (ng/mL)
Your answer should be a plain number; it is taken to be in ng/mL.

[in] Fill in the blank: the reported Cmax of O=C(O)CC1CC(c2ccccc2)=NO1 (stereo not shown) is ____.
[out] 9070

* * *

experiment: Placebo-controlled ascending multiple-dose study in healthy subjects; assay type: in vivo, human; details: human, in vivo, oral, 100 mg, Multiple Dose (Day 5) 100 mg; Geo Mean; read-out: AUC (0-24)
test readout: AUC(0-t)
Dear colleague, please send the value followed by its unit.

[in] Fill in the blank: the reported AUC(0-t) of O=C(O)CC1CC(c2ccccc2)=NO1 (stereo not shown) is ____.
[out] 23200 ng·h/mL

* * *

target: CYP2C19 (Homo sapiens, UniProt P33261); assay: CYP450 inhibition; assay type: in vitro ADME; conditions: human; 2C19 at 30 μM; read-out: highest level of inhibition
Sequence (P33261 whole entry): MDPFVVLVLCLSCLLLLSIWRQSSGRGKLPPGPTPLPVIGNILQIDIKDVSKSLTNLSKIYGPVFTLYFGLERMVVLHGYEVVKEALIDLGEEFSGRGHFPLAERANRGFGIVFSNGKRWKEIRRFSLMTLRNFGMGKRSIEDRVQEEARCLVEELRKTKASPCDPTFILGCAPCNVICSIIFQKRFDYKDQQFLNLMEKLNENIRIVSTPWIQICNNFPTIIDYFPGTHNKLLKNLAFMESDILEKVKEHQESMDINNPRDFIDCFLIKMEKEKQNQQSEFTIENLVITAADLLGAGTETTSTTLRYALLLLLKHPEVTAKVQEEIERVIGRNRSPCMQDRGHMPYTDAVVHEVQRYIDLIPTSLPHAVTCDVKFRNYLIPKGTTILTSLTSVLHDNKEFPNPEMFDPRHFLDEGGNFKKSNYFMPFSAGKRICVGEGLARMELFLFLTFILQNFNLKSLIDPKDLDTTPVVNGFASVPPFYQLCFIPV
test readout: inhibition at 30 µM

[in] Lab request: please report inhibition at 30 µM under test system CYP2C19 (Homo sapiens, UniProt P33261) for O=C(O)CC1CC(c2ccccc2)=NO1 (stereo not shown)
[out] ~35%

* * *

assay: Placebo-controlled ascending multiple-dose study in healthy subjects; assay type: in vivo, human; details: human, in vivo, oral, 100 mg, Multiple Dose (Day 1) 100 mg
test readout: Tmax (h)
Your answer should be a plain number; it is taken to be in h.

[in] Fill in the blank: the reported Tmax of O=C(O)CC1CC(c2ccccc2)=NO1 (stereo not shown) [VGX-1027] is ____.
[out] 1

* * *

assay: Placebo-controlled ascending single-dose study in healthy subjects (CAT001); type: in vivo, human; conditions: human, in vivo, oral, 100 mg, Fasted vs Fed: 100 mg fasted; geometric mean
test readout: half-life
Dear colleague, please send the value followed by its unit.

[in] Fill in the blank: the reported half-life of O=C(O)CC1CC(c2ccccc2)=NO1 (stereo not shown) is ____.
[out] 5.9 h

* * *

test: Plasma pharmacokinetics after intraperitoneal administration; type: in vivo; details: mouse, ip, 20 mg/kg, mice, i.p. 20 mg/kg
test readout: Tmax (h)
Your answer should be a plain number; it is taken to be in h.

[in] Fill in the blank: the reported Tmax of O=C(O)CC1CC(c2ccccc2)=NO1 (stereo not shown) is ____.
[out] 2

* * *

experiment: Placebo-controlled ascending single-dose study in healthy subjects (CAT001); type: in vivo, human; details: human, in vivo, oral, 10 mg, single dose 10 mg, fasted; geometric mean
test readout: Cmax (ng/mL)
Your answer should be a plain number; it is taken to be in ng/mL.

[in] Fill in the blank: the reported Cmax of O=C(O)CC1CC(c2ccccc2)=NO1 (stereo not shown) [VGX-1027] is ____.
[out] 1100

* * *

experiment: Placebo-controlled ascending single-dose study in healthy subjects (CAT001); assay type: in vivo, human; settings: human, in vivo, oral, 1 mg, single dose 1 mg, fasted; median
test readout: Tmax
Dear colleague, please send the value followed by its unit.

[in] Fill in the blank: the reported Tmax of O=C(O)CC1CC(c2ccccc2)=NO1 (stereo not shown) [VGX-1027] is ____.
[out] 1 h

* * *

Experiment: Placebo-controlled ascending single-dose study in healthy subjects (CAT001)
Format: in vivo, human
Settings: human, in vivo, oral, 1 mg, single dose 1 mg, fasted; geometric mean
Description: FIG. 21. […] Subjects were administered from 1 mg to 800 mg of VGX1027. A placebo-controlled, ascending single-dose study was performed to evaluate the safety and pharmacokinetics of VGX-1027 in healthy human subjects. […]
test readout: Cmax (ng/mL)
Your answer should be a plain number; it is taken to be in ng/mL.

[in] Fill in the blank: the reported Cmax of O=C(O)CC1CC(c2ccccc2)=NO1 (stereo not shown) [VGX-1027] is ____.
[out] 50

* * *

assay: Rising MTD study in mice; details: mouse, in vivo, 1000 mg/kg/day, read-out: Approximate Cmax
test readout: Cmax

[in] Fill in the blank: the reported Cmax of O=C(O)CC1CC(c2ccccc2)=NO1 (stereo not shown) [VGX-1027] is ____.
[out] ~400 µg/mL

* * *

experiment: Placebo-controlled ascending single-dose study in healthy subjects (CAT001); format: in vivo, human; conditions: human, in vivo, oral, 1 mg, single dose 1 mg, fasted; geometric mean; read-out: AUC
test readout: AUC
Dear colleague, please send the value followed by its unit.

[in] Fill in the blank: the reported AUC of O=C(O)CC1CC(c2ccccc2)=NO1 (stereo not shown) is ____.
[out] 460 ng·h/mL

* * *

assay: Placebo-controlled ascending single-dose study in healthy subjects (CAT001); assay type: in vivo, human; conditions: human, in vivo, oral, 100 mg, Fasted vs Fed: 100 mg fasted; geometric mean
test readout: Cmax

[in] Fill in the blank: the reported Cmax of O=C(O)CC1CC(c2ccccc2)=NO1 (stereo not shown) [VGX-1027] is ____.
[out] 6500 ng/mL

* * *

test: Placebo-controlled ascending multiple-dose study in healthy subjects; type: in vivo, human; details: human, in vivo, oral, 200 mg, Multiple Dose (Day 1) 200 mg; Geo Mean
test readout: Cmax (ng/mL)
Your answer should be a plain number; it is taken to be in ng/mL.

[in] Fill in the blank: the reported Cmax of O=C(O)CC1CC(c2ccccc2)=NO1 (stereo not shown) [VGX-1027] is ____.
[out] 15700

* * *

experiment: Placebo-controlled ascending multiple-dose study in healthy subjects; format: in vivo, human; conditions: human, in vivo, oral, 200 mg, 200 mg BID, first dose, Day 1
test readout: Tmax (h)
Your answer should be a plain number; it is taken to be in h.

[in] Fill in the blank: the reported Tmax of O=C(O)CC1CC(c2ccccc2)=NO1 (stereo not shown) is ____.
[out] 1

* * *

assay: Plasma pharmacokinetics after intraperitoneal administration; format: in vivo; conditions: mouse, ip, by 30 minutes post injection, mice, i.p. 20 mg/kg, read-out: plasma drug concentration
test readout: concentration at 30 min

[in] Fill in the blank: the reported concentration at 30 min of O=C(O)CC1CC(c2ccccc2)=NO1 (stereo not shown) is ____.
[out] > 80 µg/mL

* * *

test: Placebo-controlled ascending multiple-dose study in healthy subjects; type: in vivo, human; settings: human, in vivo, oral, 100 mg, Multiple Dose (Day 1) 100 mg; Geo Mean; read-out: AUC (0-24)
test readout: AUC(0-t) (µg·h/mL)
Your answer should be a plain number; it is taken to be in µg·h/mL.

[in] Fill in the blank: the reported AUC(0-t) of O=C(O)CC1CC(c2ccccc2)=NO1 (stereo not shown) [VGX-1027] is ____.
[out] 31.3

* * *

experiment: Placebo-controlled ascending single-dose study in healthy subjects (CAT001); assay type: in vivo, human; conditions: human, in vivo, oral, 800 mg, single dose 800 mg, fasted; geometric mean
test readout: Cmax

[in] Fill in the blank: the reported Cmax of O=C(O)CC1CC(c2ccccc2)=NO1 (stereo not shown) is ____.
[out] 43.2 µg/mL

* * *

test: Placebo-controlled ascending single-dose study in healthy subjects (CAT001); type: in vivo, human; conditions: human, in vivo, oral, 100 mg, single dose 100 mg, fasted; median
test readout: Tmax (h)
Your answer should be a plain number; it is taken to be in h.

[in] Fill in the blank: the reported Tmax of O=C(O)CC1CC(c2ccccc2)=NO1 (stereo not shown) is ____.
[out] 1.75
